log10(IC50): recorded values
molecular target: GPIIb-IIIa (Homo sapiens, UniProt P05106+P08514); construct: Purified platelet GPIIb-IIIa receptor was prepared as described by Fitzgerald; assay: ELISA IIb-IIIa assay (fibrinogen binding to immobilized purified GPIIb-IIIa); details: inhibition of fibrinogen binding to purified GPIIb-IIIa
Sequence (P08514 32-887 limits assumed): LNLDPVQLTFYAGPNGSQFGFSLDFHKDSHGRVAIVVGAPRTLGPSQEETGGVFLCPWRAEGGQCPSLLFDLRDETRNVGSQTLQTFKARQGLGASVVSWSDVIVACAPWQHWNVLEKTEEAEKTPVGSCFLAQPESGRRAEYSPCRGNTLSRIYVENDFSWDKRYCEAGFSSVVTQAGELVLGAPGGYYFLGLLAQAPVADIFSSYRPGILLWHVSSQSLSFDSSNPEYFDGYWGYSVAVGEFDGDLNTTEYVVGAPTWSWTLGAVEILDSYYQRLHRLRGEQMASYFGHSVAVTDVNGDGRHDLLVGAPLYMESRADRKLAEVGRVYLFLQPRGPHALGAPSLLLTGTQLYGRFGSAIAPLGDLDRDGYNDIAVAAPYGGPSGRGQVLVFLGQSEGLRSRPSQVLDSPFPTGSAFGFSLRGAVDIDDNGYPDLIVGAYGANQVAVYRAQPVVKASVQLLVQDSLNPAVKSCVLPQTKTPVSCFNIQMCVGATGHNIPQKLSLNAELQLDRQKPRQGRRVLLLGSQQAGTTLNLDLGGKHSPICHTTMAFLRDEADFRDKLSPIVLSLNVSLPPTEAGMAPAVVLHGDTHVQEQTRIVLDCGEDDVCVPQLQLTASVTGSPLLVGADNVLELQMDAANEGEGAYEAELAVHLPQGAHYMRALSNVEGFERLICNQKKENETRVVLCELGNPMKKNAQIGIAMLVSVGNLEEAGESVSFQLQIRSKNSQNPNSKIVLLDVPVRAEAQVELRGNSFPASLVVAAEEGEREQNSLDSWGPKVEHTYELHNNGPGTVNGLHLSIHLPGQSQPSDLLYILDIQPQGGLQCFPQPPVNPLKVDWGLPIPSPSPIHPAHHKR
Sequence (P08514 891-1039 limits assumed): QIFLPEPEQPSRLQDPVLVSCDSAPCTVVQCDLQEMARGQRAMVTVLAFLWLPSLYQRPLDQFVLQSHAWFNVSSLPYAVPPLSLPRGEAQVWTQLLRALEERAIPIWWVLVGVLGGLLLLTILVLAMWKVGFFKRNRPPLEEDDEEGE
Sequence (P05106 27-788): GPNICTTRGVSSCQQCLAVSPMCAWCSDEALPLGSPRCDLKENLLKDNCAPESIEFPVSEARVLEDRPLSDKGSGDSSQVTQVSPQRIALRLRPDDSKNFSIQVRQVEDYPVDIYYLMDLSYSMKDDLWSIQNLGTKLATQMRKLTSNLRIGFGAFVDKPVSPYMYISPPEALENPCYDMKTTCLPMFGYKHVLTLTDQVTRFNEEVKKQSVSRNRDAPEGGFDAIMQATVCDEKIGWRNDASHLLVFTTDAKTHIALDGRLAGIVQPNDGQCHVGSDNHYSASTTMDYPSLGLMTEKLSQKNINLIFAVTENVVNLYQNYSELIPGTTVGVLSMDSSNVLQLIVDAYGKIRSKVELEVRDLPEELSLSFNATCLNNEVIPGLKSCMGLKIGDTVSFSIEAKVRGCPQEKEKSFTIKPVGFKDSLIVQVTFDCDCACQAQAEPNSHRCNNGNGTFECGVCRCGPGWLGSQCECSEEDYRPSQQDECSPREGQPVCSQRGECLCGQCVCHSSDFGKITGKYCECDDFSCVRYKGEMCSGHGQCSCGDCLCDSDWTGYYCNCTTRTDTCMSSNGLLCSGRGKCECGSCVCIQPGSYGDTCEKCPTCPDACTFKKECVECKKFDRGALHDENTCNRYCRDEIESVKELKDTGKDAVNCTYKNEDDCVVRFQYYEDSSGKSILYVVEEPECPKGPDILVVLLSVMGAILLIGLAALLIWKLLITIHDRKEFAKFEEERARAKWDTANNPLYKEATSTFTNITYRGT
Field: value | Transform: log10 | Quantity: IC50 | Unit: nM

Below, 6 compounds whose answers are already recorded.
O=C(O)CN1CCN(C(=O)N2CCC3(CC2)CCN(c2ccncc2)C3)CC1=O | 2.09
O=C(O)CCCC(=O)N1CCC2(CC1)CCN(c1ccncc1)CC2 | 2.38
O=C(O)CC(=O)NC1CCN(C(=O)N2CCC3(CC2)CCN(c2ccncc2)C3)C1 (centres unmarked) | 2.65
Cc1noc(C)c1S(=O)(=O)N[C@@H](CNC(=O)C1CCC2(CC1)CCN(c1ccncc1)CC2)C(=O)O | 0.00
O=C(O)CS(=O)(=O)N1CCC(C(=O)N2CCC3(CC2)CCN(c2ccncc2)C3)CC1 | 1.97
O=C(O)CC(=O)N1CCC(C(=O)N2CCC3(CCN(c4ccncc4)CC3)C2)CC1 | 1.45

Input: Give the reported log10(IC50) for `CCCCOC(=O)N[C@@H](CCC(=O)N1CCC2(CC1)CCN(c1ccncc1)CC2)C(=O)O` (system: GPIIb-IIIa (Homo sapiens, UniProt P05106+P08514)).
Output: 0.30

Input: Give the reported log10(IC50) for `O=C(O)COC1CCN(C(=O)N2CCC3(CC2)CCN(c2ccncc2)CC3)CC1` (system: GPIIb-IIIa (Homo sapiens, UniProt P05106+P08514)).
Output: 2.11

Input: Give the reported log10(IC50) for `O=C(O)CN1CCN(C(=O)N2CCC3(CC2)CCN(c2ccncc2)C3)CC1` (system: GPIIb-IIIa (Homo sapiens, UniProt P05106+P08514)).
Output: 2.40

Input: Give the reported log10(IC50) for `O=C(O)COCC1CCN(C(=O)N2CCC3(CC2)CCN(c2ccncc2)C3)CC1` (system: GPIIb-IIIa (Homo sapiens, UniProt P05106+P08514)).
Output: 2.03

Input: Give the reported log10(IC50) for `O=C(O)CCCCCC(=O)N1CCC2(CC1)CCN(c1ccncc1)CC2` (system: GPIIb-IIIa (Homo sapiens, UniProt P05106+P08514)).
Output: 2.42

Input: Give the reported log10(IC50) for `O=C(O)CCCCC(=O)N1CCC2(CC1)CCN(c1ccncc1)CC2` (system: GPIIb-IIIa (Homo sapiens, UniProt P05106+P08514)).
Output: 2.41

These data points were gathered from patent US20030055244A1.
